Sourced from patent US20230203146A1

Target: FLAG-tagged human Ang2 (human) (UniProt O15123)
Sequence (O15123 19-496): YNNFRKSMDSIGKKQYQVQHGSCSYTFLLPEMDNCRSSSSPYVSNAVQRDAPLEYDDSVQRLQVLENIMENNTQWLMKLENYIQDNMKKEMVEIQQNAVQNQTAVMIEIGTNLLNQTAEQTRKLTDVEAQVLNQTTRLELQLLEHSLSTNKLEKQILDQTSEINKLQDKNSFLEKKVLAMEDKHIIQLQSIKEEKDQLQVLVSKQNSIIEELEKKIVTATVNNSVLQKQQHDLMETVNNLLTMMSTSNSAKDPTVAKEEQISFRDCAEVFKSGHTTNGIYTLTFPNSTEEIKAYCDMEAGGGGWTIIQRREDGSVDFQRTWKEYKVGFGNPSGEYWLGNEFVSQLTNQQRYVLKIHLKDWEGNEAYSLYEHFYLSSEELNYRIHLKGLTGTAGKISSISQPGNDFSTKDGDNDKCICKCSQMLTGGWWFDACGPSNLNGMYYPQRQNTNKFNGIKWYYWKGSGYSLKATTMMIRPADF
Test: competition ELISA: FLAG-hAng2 binding to coated hTie2-Fc
measure-name: IC50 (nM)

binder	measure-name	unit-info	numeric-value
VHH 00042 (VHH, not shown: small tags and cut ends) VHH: EVQLVESGGGLVQPGGSLRLSCAASGFTLDDYAIGWFRQAPGKEREGVSSIRDNDGSTYYADSVKGRFTISSDNSKNTVYLQMNSLRPEDTAVYYCAAVPAGRLRFGEQWYPLYEYDAWGQGTLVTVSS	IC50	nM	0.646

P. VHH 00903 (VHH, not shown: small tags and cut ends) VHH: EVQLVESGGGLVQPGGSLRLSCAASGFTLDDYAIGWFRQAPGKEREGVSSIRDNGGSTYYADSVKGRFTISSDNSKNTVYLQMNSLRPEDTAVYYCAAVPAGRLRFGEQWYPIYEYDAWGQGTLVTVSS
Q. VHH 00899 (VHH, not shown: small tags and cut ends) VHH: EVQLVESGGGLVQAGGSLRLSCAASGFTLDDYAIGWFRQAPGKEREGVSSIRDIDGSTYYADSVKGRFTISSDNDKNTVYLQMNSLKPEDTAVYYCAAVPAGRLRFGEQWYPLYEYDAWGQGTLVTVSS
R. VHH 00912 (VHH, not shown: small tags and cut ends) VHH: EVQLVESGGGLVQPGGSLRLSCAASGLTLDDYAIGWFRQAPGKEREGVSSIRDNGGSTYYADSVKGRFTISSDNSKNTVYLQMNSLRPEDTAVYYCAAVPAGRLRYGEQWYPIYEYDAWGQGTLVTVSS
Exercise: Sort entries by IC50 from minimum to maximum value. Response format: the labels, sorted as the prompt asks.
Key: R, P, Q
(R: 0.062 nM, P: 0.089 nM, Q: 0.9 nM)
